Source of measurements: paper PMC5715905

Biological target: T1, HerA;NurA H306A (thermophilic archaeon, Sulfolobus …, UniProt Q97WG8;Q97WH1 1-500;1-339, |H306A)
T1 sequence 1: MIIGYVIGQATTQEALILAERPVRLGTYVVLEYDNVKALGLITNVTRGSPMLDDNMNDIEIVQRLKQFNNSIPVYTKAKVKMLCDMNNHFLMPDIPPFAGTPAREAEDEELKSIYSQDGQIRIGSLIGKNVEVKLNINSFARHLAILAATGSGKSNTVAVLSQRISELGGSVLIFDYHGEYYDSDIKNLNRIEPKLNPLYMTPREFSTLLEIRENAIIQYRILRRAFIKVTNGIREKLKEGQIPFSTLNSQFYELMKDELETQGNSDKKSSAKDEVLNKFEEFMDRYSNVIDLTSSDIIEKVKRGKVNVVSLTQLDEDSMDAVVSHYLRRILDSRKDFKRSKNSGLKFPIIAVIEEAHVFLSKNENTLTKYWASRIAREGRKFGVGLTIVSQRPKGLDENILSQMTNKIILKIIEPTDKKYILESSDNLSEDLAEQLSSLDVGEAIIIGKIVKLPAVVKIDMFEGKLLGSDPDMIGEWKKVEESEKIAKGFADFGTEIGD
T1 sequence 2: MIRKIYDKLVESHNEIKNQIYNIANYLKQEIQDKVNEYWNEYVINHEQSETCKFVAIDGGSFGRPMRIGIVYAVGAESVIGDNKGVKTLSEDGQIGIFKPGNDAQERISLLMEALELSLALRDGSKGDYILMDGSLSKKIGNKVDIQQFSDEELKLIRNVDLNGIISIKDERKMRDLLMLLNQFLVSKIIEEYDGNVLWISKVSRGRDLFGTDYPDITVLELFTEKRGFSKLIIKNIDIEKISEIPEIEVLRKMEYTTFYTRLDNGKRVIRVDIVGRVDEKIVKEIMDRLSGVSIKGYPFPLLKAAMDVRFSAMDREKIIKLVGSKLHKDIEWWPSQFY
Test: fluorescence anisotropy; no nucleotide; Hill fit; monomeric HerA concentration; FA: 5 nM dsDNA, 100 mM NaCl, 20 mM Hepes-NaOH pH 8.0, 30 min room temperature (with nucleotide: 2 mM plus 5 mM MgCl2); native MS: 200 mM ammonium acetate pH 7.0-7.5, 1:1 protein:DNA, 30 min room temperature
Conditions: protein: recombinant;recombinant; tags: ;; chain copies: 6;2; label: 5'-fluorescein on strand 1; blunt
readout-label: Kd
Please answer using the number first and the unit second.

Record summary for 5'-fluorescein 25 bp dsDNA (dsDNA) DNA 1: GTAGTCCGGACGACAAACGCCGACT DNA 2: AGTCGGCGTTTGTCGTCCGGACTAC : reported Kd = 510 nM
